- System: 843126-344-R-J1-PDC complex spheroid viability
- experiment_description: Anticancer human tumor 843126-344-R-J1-PDC patient-derived melanoma cell line growth inhibition [POLQ]; active means viability on the fitted dose curve at most 10% of control; inactive means the rest
- condition_notes: second compound 10 µM; first compound 1 µM
Pick one: 1.0 (active), 0.0 (inactive)

Below are worked cases with known answers.
CCc1cc2c(N3CCc4c(cc(Cn5ccnc5)cc4-c4cn(C)nc4C(F)(F)F)C3=O)cc(C)nc2c(OC)n1 + COC1C(OC(N)=O)C(O)C(Oc2ccc3c(O)c(NC(=O)c4ccc(O)c(CC=C(C)C)c4)c(=O)oc3c2C)OC1(C)C :: 0.0
CNCc1ccc(-c2[nH]c3cc(F)cc4c3c2CCNC4=O)cc1 + Nc1ccc(C#CCN(C(=O)Cc2ncc(C(F)(F)F)cc2C(F)(F)F)c2ccc(F)cc2)nn1 :: 0.0

Query :: // outcome(item) with item = O=c1[nH]cc(F)c(=O)[nH]1 + COC1C(OC(N)=O)C(O)C(Oc2ccc3c(O)c(NC(=O)c4ccc(O)c(CC=C(C)C)c4)c(=O)oc3c2C)OC1(C)C
Result :: 0.0

Query :: // outcome(item) with item = CCc1c2c(nc3ccc(O)cc13)-c1cc3c(c(=O)n1C2)COC(=O)[C@]3(O)CC + Nc1ccc(C#CCN(C(=O)Cc2ncc(C(F)(F)F)cc2C(F)(F)F)c2ccc(F)cc2)nn1
Result :: 0.0

Query :: // outcome(item) with item = CC1COCCN1c1cc(C2(S(C)(=N)=O)CC2)nc(-c2ccnc3[nH]ccc23)n1 (stereo not given) + Nc1ccc(C#CCN(C(=O)Cc2ncc(C(F)(F)F)cc2C(F)(F)F)c2ccc(F)cc2)nn1
Result :: 0.0

Query :: // outcome(item) with item = CC(C)n1c(=O)n(C)c2cnc3cc(F)c(-c4ccc(OCCCN5CCCCC5)nc4)cc3c21 + COC1C(OC(N)=O)C(O)C(Oc2ccc3c(O)c(NC(=O)c4ccc(O)c(CC=C(C)C)c4)c(=O)oc3c2C)OC1(C)C
Result :: 0.0

Query :: // outcome(item) with item = O=C(Nc1ccc(O)c(NS(=O)(=O)c2ccc(F)cc2)c1)c1ccc(-c2ccccc2)cc1 + COC1C(OC(N)=O)C(O)C(Oc2ccc3c(O)c(NC(=O)c4ccc(O)c(CC=C(C)C)c4)c(=O)oc3c2C)OC1(C)C
Result :: 0.0

Query :: // outcome(item) with item = COc1cccc2c1C(=O)c1c(O)c3c(c(O)c1C2=O)CC(O)(C(=O)CO)CC3OC1CC(N)C(O)C(C)O1 (stereo not given) + Nc1ccc(C#CCN(C(=O)Cc2ncc(C(F)(F)F)cc2C(F)(F)F)c2ccc(F)cc2)nn1
Result :: 0.0

* * *

- System: 843126-344-R-J1-PDC complex spheroid viability
- experiment_description: Anticancer human tumor 843126-344-R-J1-PDC cell line growth inhibition [POLQ];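 further: spheroids exposed to drugs for seven days before readout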
- condition_notes: second compound 0.316 µM; first compound 3.16 µM; stronger effect = lower value
Measured viability, T/C by item

// below: answered molecules
COc1cccc2c1C(=O)c1c(O)c3c(c(O)c1C2=O)CC(O)(C(=O)CO)CC3OC1CC(N)C(O)C(C)O1 (stereo not given) + Nc1ccc(C#CCN(C(=O)Cc2ncc(C(F)(F)F)cc2C(F)(F)F)c2ccc(F)cc2)nn1 :: 2.99%
CNCc1ccc(-c2[nH]c3cc(F)cc4c3c2CCNC4=O)cc1 + Nc1ccc(C#CCN(C(=O)Cc2ncc(C(F)(F)F)cc2C(F)(F)F)c2ccc(F)cc2)nn1 :: 94.4%

Query :: Entry CCc1cc2c(N3CCc4c(cc(Cn5ccnc5)cc4-c4cn(C)nc4C(F)(F)F)C3=O)ccnc2c(OC)n1 + COC1C(OC(N)=O)C(O)C(Oc2ccc3c(O)c(NC(=O)c4ccc(O)c(CC=C(C)C)c4)c(=O)oc3c2C)OC1(C)C needs its viability, T/C filled in; supply it.
Result :: 76.6%

Query :: Entry CC1COCCN1c1cc(-c2ccnn2C)c2ccnc(-c3ccn[nH]3)c2n1 (stereo not given) + Cc1cccc(N(C)C(=O)C2C(O)CCN2c2nc(C)cc(C(F)(F)F)c2C#N)c1 needs its viability, T/C filled in; supply it.
Result :: 43%

Query :: Entry C=CC(=O)N1CCN(c2nc(=O)n(-c3c(C)ccnc3C(C)C)c3nc(-c4c(O)cccc4F)c(F)cc23)C(C)C1 (stereo not given) + Cc1cccc(N(C)C(=O)C2C(O)CCN2c2nc(C)cc(C(F)(F)F)c2C#N)c1 needs its viability, T/C filled in; supply it.
Result :: 84%

Query :: Entry CCc1cc2c(N3CCc4c(cc(Cn5ccnc5)cc4-c4cn(C)nc4C(F)(F)F)C3=O)ccnc2c(OC)n1 + Nc1ccc(C#CCN(C(=O)Cc2ncc(C(F)(F)F)cc2C(F)(F)F)c2ccc(F)cc2)nn1 needs its viability, T/C filled in; supply it.
Result :: 72.9%

Query :: Entry C#Cc1c(F)ccc2cc(O)cc(-c3ncc4c(N5CC6CCC(C5)N6)nc(OCC56CCCN5CC(F)C6)nc4c3F)c12 (stereo not given) + Cc1cccc(N(C)C(=O)C2C(O)CCN2c2nc(C)cc(C(F)(F)F)c2C#N)c1 needs its viability, T/C filled in; supply it.
Result :: 75.4%
